Assay: Solubility of the compound in intestine simulated fluid JP2
Type: physicochemical
Catalogue of molecules with associated log10 of solubility
Use the decimal logarithm of solubility (µg/mL).

# example entries with known answers
COc1ccc(S(=O)(=O)N2CCOC23CCN(C(=O)Nc2ccccc2)CC3F)cc1 (racemic) ... 2.76
O=C(Nc1ccccc1)N1CCC2(OCCN2S(=O)(=O)c2ccccc2)[C@@H](F)C1 (mixture of isomers) ... 4.08
COc1ccc(S(=O)(=O)N2CCOC23CCN(C(=O)Nc2ccccc2)CC3F)cc1OC (configuration not stated) ... 3.65
O=C(Nc1ccccc1)N1CCC2(OCCN2S(=O)(=O)c2ccccc2)[C@H](F)C1 (mixture of isomers) ... 4.53
O=C(Nc1ccccc1)N1CCC2(OCCN2S(=O)(=O)c2ccccc2)C(F)(F)C1 (racemic) ... 4.26

Bench note: what log10 of solubility did COc1cccc(S(=O)(=O)N2CCOC23CCN(C(=O)Nc2ccccc2)CC3F)c1 (racemic) show?
3.38

Bench note: what log10 of solubility did "O=C(Nc1ccccc1)N1CCC2(CC1)OCCN2S(=O)(=O)c1ccccc1" show?
3.23

----------
Catalogue of compounds with associated logD
Test: Lipophilicity, log D of the compound
Format: physicochemical
Details: octanol/water
The answer should be written as a number, with no unit following it.

# example entries with known answers
COc1ccc(S(=O)(=O)N2CCOC23CCN(C(=O)Nc2ccccc2)CC3F)cc1 (racemic) ... 1.63
O=C(Nc1ccccc1)N1CCC2(OCCN2S(=O)(=O)c2ccccc2)[C@H](F)C1 (mixture of isomers) ... 2.04
COc1cccc(S(=O)(=O)N2CCOC23CCN(C(=O)Nc2ccccc2)CC3F)c1 (racemic) ... 1.75

Please find the next compound below.
Bench note: what logD did COc1ccc(S(=O)(=O)N2CCOC23CCN(C(=O)Nc2ccccc2)CC3F)cc1OC (centres undefined) show?
1.35

----------
Catalogue of compounds with associated logD
Test: Lipophilicity, log D of the compound
Type: physicochemical
Settings: octanol/water

O=C(Nc1ccccc1)N1CCC2(CC1)OCCN2S(=O)(=O)c1ccccc1 ... 1.82
O=C(Nc1ccccc1)N1CCC2(OCCN2S(=O)(=O)c2ccccc2)[C@@H](F)C1 (mixture of isomers) ... 1.5

Bench note: what logD did O=C(Nc1ccccc1)N1CCC2(OCCN2S(=O)(=O)c2ccccc2)C(F)(F)C1 (racemic) show?
1.93
